assay info: Selectivity index, ratio of MCC for African green monkey Vero cells to EC50 for Sindbis virus infected in African green monkey Vero cells
Format: toxicity
property: selectivity ratio

Study these solved cases before continuing.
>  <compound structure>
CCCNC(=S)NNC(=O)c1[nH]c2ccc(F)cc2c1-c1ccccc1

>  <property>
selectivity ratio

>  <result>
15

$$$$
>  <compound structure>
CCNC(=S)NNC(=O)c1[nH]c2ccc(F)cc2c1-c1ccccc1

>  <property>
selectivity ratio

>  <result>
6

$$$$

Switching to the query record.
Consider `C=CCNC(=S)NNC(=O)c1[nH]c2ccc(F)cc2c1-c1ccccc1` . Its measured selectivity ratio is ≥ 5
